# SUBJECT_OF_TEST: Heparanase (Homo sapiens)
# Sequence (Q9Y251 36-109 limits assumed): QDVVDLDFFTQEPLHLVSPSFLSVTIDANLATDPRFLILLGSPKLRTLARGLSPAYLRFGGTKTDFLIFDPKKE
# Sequence (Q9Y251 158-543 limits assumed): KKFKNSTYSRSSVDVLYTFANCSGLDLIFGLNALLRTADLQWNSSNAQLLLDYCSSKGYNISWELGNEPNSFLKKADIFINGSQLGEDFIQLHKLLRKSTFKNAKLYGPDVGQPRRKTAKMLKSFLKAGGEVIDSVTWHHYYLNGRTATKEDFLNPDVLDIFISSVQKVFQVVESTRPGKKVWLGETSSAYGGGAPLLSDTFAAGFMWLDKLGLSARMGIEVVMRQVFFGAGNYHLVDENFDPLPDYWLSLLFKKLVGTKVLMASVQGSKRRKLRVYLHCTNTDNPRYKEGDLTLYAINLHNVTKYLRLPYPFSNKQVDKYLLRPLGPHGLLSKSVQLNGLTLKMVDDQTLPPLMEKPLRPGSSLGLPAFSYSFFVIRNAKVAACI
# TEST_NAME: Inhibition of heparanase (unknown origin)
QUANTITY: pIC50
Formally, pIC50 is defined as -log10 of the concentration c, with c in mol/L.

q: So what does the record say about pIC50 for "COc1cccc(-n2nc(C(=O)O)cc2-c2ccc(C3CCCCC3)c(Cl)c2)c1" ?
a: 5.00
